These entries and their values trace back to the supplement of paper PMC4723716.

Parameter: viability index. Scope: all listed entries.
Tested on: Plasmodium falciparum NF54 gametocytes
Experiment: viability index relative to DMSO control (fraction); higher = less gametocyte killing
Conditions: gametocyte stage: Stage IV viability index; 12.5 µM; incubation time: 72 h
Field format: numeric only.

These recorded examples may help you get a feel for the data.
What viability index value was documented for this compound, FC(F)(F)c1cccc(Nc2nc(-c3ccccc3)nc3ncccc23)c1 ?
1.09

What viability index value was documented for this compound, CCOc1ccc2c(c1)CN(Cc1ccc(Cl)cc1)CO2 ?
0.592

What viability index value was documented for this compound, c1ccc2cc3c(Nc4ccc(N5CCOCC5)cc4)ccnc3cc2c1 ?
1.02

Let us examine a further case.
What viability index value was documented for this compound, O=C(Nc1ccc(N2CCCCC2)c(Cl)c1)c1ccc(Br)o1 ?
0.787
